Assay System: Polyadenylate-binding protein 1 (Homo sapiens) (UniProt P11940)
Sequence (P11940 whole entry, looked up): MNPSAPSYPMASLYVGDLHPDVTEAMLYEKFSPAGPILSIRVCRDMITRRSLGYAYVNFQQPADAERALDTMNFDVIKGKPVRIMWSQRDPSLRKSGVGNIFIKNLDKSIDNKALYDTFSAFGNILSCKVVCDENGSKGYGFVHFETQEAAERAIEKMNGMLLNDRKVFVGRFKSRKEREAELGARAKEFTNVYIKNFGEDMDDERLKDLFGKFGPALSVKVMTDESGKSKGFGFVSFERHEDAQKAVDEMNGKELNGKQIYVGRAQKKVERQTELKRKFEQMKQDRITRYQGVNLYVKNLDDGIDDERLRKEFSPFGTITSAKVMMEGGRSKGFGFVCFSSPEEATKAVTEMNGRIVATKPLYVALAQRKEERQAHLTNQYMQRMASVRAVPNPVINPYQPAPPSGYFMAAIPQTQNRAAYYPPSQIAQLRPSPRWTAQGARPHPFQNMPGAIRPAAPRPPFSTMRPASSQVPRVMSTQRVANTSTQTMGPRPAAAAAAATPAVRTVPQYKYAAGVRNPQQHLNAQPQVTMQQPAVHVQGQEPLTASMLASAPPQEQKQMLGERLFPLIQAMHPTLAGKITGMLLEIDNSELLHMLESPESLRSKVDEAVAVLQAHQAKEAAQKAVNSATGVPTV
Experiment Notes: PABP poly(A) RNA binding inhibitors, primary screen, biochemical, fluorescence polarization, uHTS (AID 2014);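 further: calls also rest on retests at 20 µM and on dose response follow-up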
Assay Setup: at 35 µM
Hit rate of the full screen: of about 290,000 compounds, about 3,000 (1%) were called active. How the calls were made is not given here. The sample as a whole holds a higher share of actives than the screen did.
Possible outcomes: active, inactive

INSERT INTO assay_data (compound, qualitative_label) VALUES
  ('Cc1ccc(C(=O)COC(=O)CCN2C(=O)C3C4CCC(C4)C3C2=O)cc1C (stereo not given)', 'inactive'),
  ('CCOc1cnc(C(=O)NNC(=O)c2ccccc2Br)o1', 'active'),
  ('Cc1ccc(C)c(SCc2nc3sc(C(=O)O)c(C)c3c(=O)[nH]2)c1', 'inactive'),
  ('O=C(NC(=S)Nc1ncccn1)c1ccccc1Br', 'inactive'),
  ('Cc1ccc(S(=O)(=O)N2CCC(Oc3ccc(-n4cnnn4)cc3)CC2)cc1', 'inactive'),
  ('O=C(Cc1cccs1)Nc1ccc([N+](=O)[O-])cc1', 'inactive'),
  ('Cc1ccc(CN2CCCOCCS2(=O)=O)cc1', 'inactive'),
  ('CCN(CC(=O)NCc1cccs1)C(=O)c1cccc(S(=O)(=O)Nc2ccccc2OC)c1', 'active'),
  ('CSc1nnc(SCc2nc3sc(C(=O)O)c(C)c3c(=O)[nH]2)s1', 'active'),
  ('O=C1c2ccccc2S(=O)(=O)N1Cc1c(F)cccc1Cl', 'inactive');

###

Assay System: Polyadenylate-binding protein 1 (Homo sapiens) (UniProt P11940)
Experiment Notes: PABP poly(A) RNA binding inhibitors, primary screen, biochemical, fluorescence polarization, uHTS (AID 2014);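 further: calls also rest on retests at 20 µM and on dose response follow-up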
Assay Setup: at 35 µM
Hit rate of the full screen: of about 290,000 compounds, about 3,000 (1%) were called active. No rule for the calls is given here. The list comes from a sample in which actives are over-represented; it also holds close analogues and randomly drawn compounds.
Possible outcomes: YES (active), NO (inactive)

INSERT INTO measurements (compound, qualitative_label) VALUES
  ('COc1ccc(-c2csc(Cc3nc(O)cs3)n2)cc1', 'YES'),
  ('CC(=O)OCc1cc2cc(C)ccc2[nH]c1=O', 'NO'),
  ('CN1/C(=C\C(=O)c2cccnc2Cl)C(C)(C)c2ccccc21', 'NO'),
  ('Cn1c(CCc2ccccc2)nnc1SCC(N)=O', 'NO'),
  ('Cc1cccc(NC(=O)c2sc3nc4c(c(-c5ccco5)c3c2N)CCC4)c1', 'YES'),
  ('CCOC(=O)c1c(S(=O)(=O)Nc2ccc(CN3CCC(C)CC3)cc2)c(C)n(C)c1C', 'NO'),
  ('Cc1c(C2=CCN(S(=O)(=O)c3ccc(Cl)cc3)CC2)c2ccccc2n1C', 'YES'),
  ('O=C(CCc1c[nH]c2ccccc12)NCCOc1ccccc1', 'NO'),
  ('O=C(NCCCc1ccccc1)c1cc(COc2c(F)cccc2F)on1', 'NO'),
  ('O=c1[nH]c(=S)[nH]c2[nH]c(=S)[nH]c12', 'YES'),
  ('Cc1[nH]c2ccccc2c1C(=O)CN1CCCC(C)C1 (stereo not drawn)', 'NO'),
  ('CC(C)(C)C(=O)CN1C2=NCCN2c2ccccc21', 'NO'),
  ('COc1ccc(NS(=O)(=O)c2cc(NC(=O)C3CCCCC3)ccc2N2CCOCC2)cc1', 'YES');
